- Tested on: UACC-62
- EXPERIMENT: NCI one-dose assay
- Type: cell-based
- ASSAY_CONDITIONS: Homo sapiens, UACC-62, Melanoma, read-out: Cell growth inhibition %
MEASURED_PARAMETER: inhibition at 10 µM (%)
Please state the figure in %; there is no need to write the unit.

// solved cases for inhibition at 10 µM follow
C=CCn1c(SC/C(=N\O)c2ccccc2)nnc1-c1c[nH]c2ccccc12 [Compound 7a] | 13.6
Cc1ccc(C(=O)CSc2nnc(-c3c[nH]c4ccccc34)n2-c2ccccc2)cc1 [Compound 6h] | 76.1
C=CCn1c(SCC(=O)c2ccc(Cl)cc2)nnc1-c1c[nH]c2ccccc12 [Compound 6e] | 14.7
C=CCn1c(SCC(=NO)c2ccc(OC)cc2)nnc1-c1c[nH]c2ccccc12 [Compound 7b] | 20.9
C=CCn1c(SC/C(=N\O)c2ccc(Br)cc2)nnc1-c1c[nH]c2ccccc12 [Compound 7d] | 36.3
O=C(CSc1nnc(-c2c[nH]c3ccccc23)n1-c1ccccc1)c1ccc(Br)cc1 [Compound 6i] | 64.8
O/N=C(\CSc1nnc(-c2c[nH]c3ccccc23)n1-c1ccccc1)c1ccc(Br)cc1 [Compound 7i] | 190
Cc1ccc(/C(CSc2nnc(-c3c[nH]c4ccccc34)n2-c2ccccc2)=N/O)cc1 [Compound 7h] | 153

Problem: Tell me reported inhibition at 10 µM for O/N=C(\CSc1nnc(-c2c[nH]c3ccccc23)n1-c1ccccc1)c1ccc(Cl)cc1 [Compound 7j] , tested with UACC-62.
Solution: 143

Problem: Param item: O=C(CSc1nnc(-c2c[nH]c3ccccc23)n1-c1ccccc1)c1ccc(Cl)cc1 [Compound 6j]
Solution: 47.2

Problem: Param item: C=CCn1c(SCC(=O)c2ccc(Br)cc2)nnc1-c1c[nH]c2ccccc12 [Compound 6d]
Solution: 16.9

Problem: Param item: C=CCn1c(SC/C(=N\O)c2ccc(C)cc2)nnc1-c1c[nH]c2ccccc12 [Compound 7c]
Solution: 30.9

---

- Test system: MDA-MB-468
- EXPERIMENT: NCI one-dose assay
- Assay type: cell-based
- ASSAY_CONDITIONS: Homo sapiens, MDA-MB-468, Breast cancer, read-out: Cell growth inhibition %
I would appreciate it if you labelled entries True when inhibition at 10 µM is 40% or higher, otherwise False.

Look over these answered cases.
C=CCn1c(SC/C(=N\O)c2ccc(Br)cc2)nnc1-c1c[nH]c2ccccc12 [Compound 7d] | True
O/N=C(\CSc1nnc(-c2c[nH]c3ccccc23)n1-c1ccccc1)c1ccc(Cl)cc1 [Compound 7j] | True
O/N=C(\CSc1nnc(-c2c[nH]c3ccccc23)n1-c1ccccc1)c1ccc(Br)cc1 [Compound 7i] | True
Cc1ccc(/C(CSc2nnc(-c3c[nH]c4ccccc34)n2-c2ccccc2)=N/O)cc1 [Compound 7h] | True
C=CCn1c(SC/C(=N\O)c2ccc(Cl)cc2)nnc1-c1c[nH]c2ccccc12 [Compound 7e] | True

Problem: Hi team, for C=CCn1c(SCC(=O)c2ccc(Br)cc2)nnc1-c1c[nH]c2ccccc12 [Compound 6d] , is the recorded inhibition at 10 µM at or above 40%?
Solution: False

Problem: Param item: C=CCn1c(SC/C(=N\O)c2ccccc2)nnc1-c1c[nH]c2ccccc12 [Compound 7a]
Solution: False

Problem: Param item: C=CCn1c(SC/C(=N\O)c2ccc(C)cc2)nnc1-c1c[nH]c2ccccc12 [Compound 7c]
Solution: False

---

- System: A549/ATCC
- EXPERIMENT: NCI one-dose assay
- Format: cell-based
- ASSAY_CONDITIONS: Homo sapiens, Non-small cell lung cancer, read-out: Cell growth inhibition %
Attribute: inhibition at 10 µM
Please state the figure in %; there is no need to write the unit.

// solved cases for inhibition at 10 µM follow
C=CCn1c(SCC(=O)c2ccc(OC)cc2)nnc1-c1c[nH]c2ccccc12 [Compound 6b] | -8.47
C=CCn1c(SC/C(=N\O)c2ccc(C)cc2)nnc1-c1c[nH]c2ccccc12 [Compound 7c] | 4.9
O/N=C(\CSc1nnc(-c2c[nH]c3ccccc23)n1-c1ccccc1)c1ccc(Br)cc1 [Compound 7i] | 118
O=C(CSc1nnc(-c2c[nH]c3ccccc23)n1-c1ccccc1)c1ccc(Cl)cc1 [Compound 6j] | 62.5
O/N=C(\CSc1nnc(-c2c[nH]c3ccccc23)n1-c1ccccc1)c1ccc(Cl)cc1 [Compound 7j] | 78.5

Problem: Tell me reported inhibition at 10 µM for Cc1ccc(/C(CSc2nnc(-c3c[nH]c4ccccc34)n2-c2ccccc2)=N/O)cc1 [Compound 7h] , tested with A549/ATCC.
Solution: 81.6

Problem: Param item: C=CCn1c(SCC(=O)c2ccc(Cl)cc2)nnc1-c1c[nH]c2ccccc12 [Compound 6e]
Solution: 3.63

Problem: Param item: O/N=C(\CSc1nnc(-c2c[nH]c3ccccc23)n1-c1ccccc1)c1ccccc1 [Compound 7f]
Solution: 46.9

Problem: Param item: C=CCn1c(SC/C(=N\O)c2ccccc2)nnc1-c1c[nH]c2ccccc12 [Compound 7a]
Solution: -6.67

---

- System: OVCAR-4
- EXPERIMENT: NCI one-dose assay
- Type: cell-based
- ASSAY_CONDITIONS: Homo sapiens, OVCAR-4, Ovarian cancer, read-out: Cell growth inhibition %
- Experimental: The National Cancer Institute (NCI), Bethesda, USA, selected the final compounds 6a–j and 7a–j for in vitro anticancer screening. An initial in vitro single-dose anticancer experiment was performed with the entire NCI 60 cell lines derived from nine tumor subpanel cancer cell lines. The results for each compound were illustrated as a mean graph showing the percentage growth of treated cells compared to untreated control cells (see Supplementary Materials). […]
MEASURED_PARAMETER: inhibition at 10 µM
State the result as a value with its unit after it.

// solved cases for inhibition at 10 µM follow
O=C(CSc1nnc(-c2c[nH]c3ccccc23)n1-c1ccccc1)c1ccccc1 [Compound 6f] | 102%
C=CCn1c(SCC(=O)c2ccc(OC)cc2)nnc1-c1c[nH]c2ccccc12 [Compound 6b] | -4.81%
Cc1ccc(C(=O)CSc2nnc(-c3c[nH]c4ccccc34)n2-c2ccccc2)cc1 [Compound 6h] | 116%
C=CCn1c(SCC(=O)c2ccc(Cl)cc2)nnc1-c1c[nH]c2ccccc12 [Compound 6e] | -8%
COc1ccc(C(=O)CSc2nnc(-c3c[nH]c4ccccc34)n2-c2ccccc2)cc1 [Compound 6g] | 99.4%

Problem: Can you share its inhibition at 10 µM? I mean this molecule: C=CCn1c(SCC(=NO)c2ccc(OC)cc2)nnc1-c1c[nH]c2ccccc12 [Compound 7b]
Solution: -1.81%

Problem: Param item: COc1ccc(/C(CSc2nnc(-c3c[nH]c4ccccc34)n2-c2ccccc2)=N/O)cc1 [Compound 7g]
Solution: 83.2%

Problem: Param item: C=CCn1c(SC/C(=N\O)c2ccc(Cl)cc2)nnc1-c1c[nH]c2ccccc12 [Compound 7e]
Solution: 19.9%

---

Attribute: GI50
- System: panel of 60 human tumor cell lines
- EXPERIMENT: NCI five-dose assay, full panel
- Format: cell-based
- ASSAY_CONDITIONS: most of the tested cell lines across nine subpanels, read-out: GI50 values, range across nine subpanels

// solved cases for GI50 follow
Cc1ccc(C(=O)CSc2nnc(-c3c[nH]c4ccccc34)n2-c2ccccc2)cc1 | 8.42 to 33.5 µM
O/N=C(\CSc1nnc(-c2c[nH]c3ccccc23)n1-c1ccccc1)c1ccc(Br)cc1 | 2.1 to 3.23 µM

Problem: Can you share its GI50? I mean this molecule: O/N=C(\CSc1nnc(-c2c[nH]c3ccccc23)n1-c1ccccc1)c1ccc(Cl)cc1
Solution: 2.45 to 5.23 µM

Problem: Param item: Cc1ccc(/C(CSc2nnc(-c3c[nH]c4ccccc34)n2-c2ccccc2)=N/O)cc1
Solution: 1.85 to 5.76 µM

---

- System: SF-539
- EXPERIMENT: NCI one-dose assay
- Type: cell-based
- ASSAY_CONDITIONS: Homo sapiens, SF-539, CNS cancer, read-out: Cell growth inhibition %
I would appreciate it if you labelled entries true when inhibition at 10 µM is 40% or higher, otherwise false.

O/N=C(\CSc1nnc(-c2c[nH]c3ccccc23)n1-c1ccccc1)c1ccc(Br)cc1 | true

Problem: Hi team, for C=CCn1c(SC/C(=N\O)c2ccc(Cl)cc2)nnc1-c1c[nH]c2ccccc12 , is the recorded inhibition at 10 µM at or above 40%?
Solution: false

Problem: Param item: C=CCn1c(SCC(=O)c2ccc(Br)cc2)nnc1-c1c[nH]c2ccccc12
Solution: false

Problem: Param item: O/N=C(\CSc1nnc(-c2c[nH]c3ccccc23)n1-c1ccccc1)c1ccc(Cl)cc1
Solution: true

Problem: Param item: COc1ccc(C(=O)CSc2nnc(-c3c[nH]c4ccccc34)n2-c2ccccc2)cc1
Solution: true

Problem: Param item: C=CCn1c(SC/C(=N\O)c2ccc(Br)cc2)nnc1-c1c[nH]c2ccccc12
Solution: false

Problem: Param item: O=C(CSc1nnc(-c2c[nH]c3ccccc23)n1-c1ccccc1)c1ccc(Br)cc1
Solution: false

Problem: Param item: C=CCn1c(SCC(=O)c2ccccc2)nnc1-c1c[nH]c2ccccc12
Solution: false
